All figures here come from patent US20240139265A1.

Measured exchange rate with Pos peptide, listed per entry.
# measured.target: HLA-A*24:02 class I complex (biotinylated heavy chain with beta2-microglobulin) (human)
# method: UV peptide exchange + HLA class I ELISA; % of Pos control peptide
# condition.parameters: remark: other sources report otherwise

binder | exchange rate with Pos peptide [%]
RAVRRMNTF (here or on the partner: biotinylated heavy chain) [P17 9-mer neoantigen peptide … (MSMB-NOCA4 fusion)] | 0.1
LMAQRLLLR (here or on the partner: biotinylated heavy chain) [P97 9-mer neoantigen peptide … (FOXRED2-TXN2 fusion)] | 0.1
FLFLLLPLS (here or on the partner: biotinylated heavy chain) [P87 9-mer neoantigen peptide … (AR-Intron splice variant)] | 0.2
YCMAAPMGL (here or on the partner: biotinylated heavy chain) [P76 9-mer neoantigen peptide … (AR-V3 splice variant)] | -0.5
YQFTFDLLI (here or on the partner: biotinylated heavy chain) [P48 9-mer neoantigen peptide … (AR.p.H875Y missense)] | 0.1
LLERNSFEV (here or on the partner: biotinylated heavy chain) [P73 9-mer neoantigen peptide … (TP53 (G266E) missense)] | 0.5
IPVLTRWPL (here or on the partner: biotinylated heavy chain) [P19 9-mer neoantigen peptide … (TMEM222-LOC644961 fusion)] | 0.1
RAKCKFSIL (here or on the partner: biotinylated heavy chain) [P56 9-mer neoantigen peptide … (SPOP(F102C) missense)] | 0.5
RVGNCKHLK (here or on the partner: biotinylated heavy chain) [P82 9-mer neoantigen peptide … (AR-V7 splice variant)] | -0.1
YLRRQKRLK (here or on the partner: biotinylated heavy chain) [P60 9-mer neoantigen peptide … (FOXA1.p.F266L missense)] | 0.9
CPMSRLRLA (here or on the partner: biotinylated heavy chain) [P46 9-mer neoantigen peptide … (TP53 (R213D) frameshift)] | -0.4
IVWWCPMSR (here or on the partner: biotinylated heavy chain) [P98 9-mer neoantigen peptide … (TP53 (R213D) frameshift)] | -0.1
QLIAMDSAI (here or on the partner: biotinylated heavy chain) [P22 9-mer neoantigen peptide … (SLC45A3-ELK4 fusion)] | 0
HVPKILSGK (here or on the partner: biotinylated heavy chain) [P58 9-mer neoantigen peptide … (AR (Q903H) missense)] | 0.2
CYLGRQKRF (here or on the partner: biotinylated heavy chain) [P61 9-mer neoantigen peptide … (FOXA1.p.R261G missense)] | 90.3
